Values were extracted from patent US6339042B1.

Overview of recorded phytotoxicity rating HORVW for various molecules
System: Hordeum vulgare
procedure-details: Pre-emergence herbicidal evaluation, HORVW
Type: in vivo
condition-description: 0.100 kg/ha, three weeks after treatment

item-smiles | target-entity | phytotoxicity rating HORVW
CCN(C(=O)COc1nc2ccccc2o1)C1=CC(C)(C)CC(C)=C1 | Hordeum vulgare | 0 (0 - No effect)
CCc1nnc(OCC(=O)N(C2=CC(C)(C)CC(C)=C2)C(C)C)s1 | Hordeum vulgare | 0 (0 - No effect)
CC1=CC(N(C)C(=O)COc2nc3ccccc3o2)=CC(C)(C)C1 | Hordeum vulgare | 0 (0 - No effect)
CC1=CC(N(C(=O)COc2nc3ccccc3o2)C(C)C)=CC(C)(C)C1 | Hordeum vulgare | 1 (1 - Trace effect)
CC1=CC(N(C)C(=O)COc2nnc(C(F)(F)F)s2)=CC(C)(C)C1 | Hordeum vulgare | 0 (0 - No effect)
CCc1nnc(OCC(=O)N(C)C2=CC(C)(C)CC(C)=C2)s1 | Hordeum vulgare | 0 (0 - No effect)
CC1=CC(N(C)C(=O)COc2nnc(C(F)(F)C(F)(F)F)s2)=CC(C)(C)C1 | Hordeum vulgare | 0 (0 - No effect)
CCN(C(=O)COc1nnc(C(F)(F)C(F)(F)F)s1)C1=CC(C)(C)CC(C)=C1 | Hordeum vulgare | 0 (0 - No effect)
CCN(C(=O)COc1nnc(C(F)(F)F)s1)C1=CC(C)(C)CC(C)=C1 | Hordeum vulgare | 2 (2 - Slight effect)
CC1=CC(N(C(=O)COc2nnc(C(F)(F)F)s2)C(C)C)=CC(C)(C)C1 | Hordeum vulgare | 0 (0 - No effect)
CCc1nnc(OCC(=O)N(CC)C2=CC(C)(C)CC(C)=C2)s1 | Hordeum vulgare | 0 (0 - No effect)
